Item-by-item account of Max. Activity (fold over background)
- study.target: Vg9/Vd2 T cell receptor on SKW3_4 cells (UniProt Q99603)
- Sequence (Q99603 21-122, chain 1 of 2): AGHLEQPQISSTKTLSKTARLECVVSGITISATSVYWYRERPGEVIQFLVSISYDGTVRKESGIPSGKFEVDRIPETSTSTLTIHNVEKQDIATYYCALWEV
- Sequence (A0JD36 20-115, chain 2 of 2, further chain): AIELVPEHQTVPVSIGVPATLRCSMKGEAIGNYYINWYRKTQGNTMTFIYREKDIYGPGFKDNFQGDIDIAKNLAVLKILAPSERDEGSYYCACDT
- assay.info: flow cytometry, dose-response binding at 37 C on SKW3_4 cells expressing Vg9/Vd2
Could you keep your reply to the number by itself?

Use the examples below as a reference point.
VG9B58 (antibody, human IgG1, kappa, V domains shown) VH: QVQLQESGPGLVKPSETLSLTCTVSGGSIKSSYWTWIRQPPGKGLEWIGYMFYLGSTNYNPSLKSRVTMSIDTSRNQFSLKLSSVTAADTAVYYCSRERPVLDAFDIWGQGTMVTVSS VL: DIQMTQSPSAMSASVGDRVTITCRASQDITNYLAWFQQKPGKVPKRLIYAASSLQGGVPSRFSGSGSGTEFTLTISSLQPEDFSTYYCLQHDTYPYTFGQGTKVDIKR	160
VG9B88 (antibody, human IgG1, kappa, V domains shown) VH: EVQLVESGGGLVKPGGSLRLSCAVSGFTFSSYTMNWVRQAPGKGLEWVSSISTSSSYIDYADSVKGRFTISRDNAKKSLYLQMNSLRAEDTAVYYCARDGDMVAPIKGSFDYWGQGTLVTVSS VL: EIVLTQSPLSLPVTPGEPASISCRSSQSLLNSDDGNTYLDWYLQKPGQSPQLLIYTLSYRASGVPDRFSGSGSGTDFTLKISRVEAEDVGVYYCMQRIEFPITFGQGTRLEIKR	154
VG9B73 (antibody, human IgG1, kappa, V domains shown) VH: EVQLVQSGGGLVKPGGSLRLSCAASGFTFSNYDMNWVRQAPGKGLEWVSSISSSSSYIYYADSVKGRFTISRDNARNSLFLQMSSLRAEDTAVYYCAREIGVTGTTYYQDYGMDVWGQGTTVTVSS VL: EIVMTQSPGTLSLSPGERATLSCRASQSFSSNYLAWYQQKPGQAPRLLIYGASSRATGIPDRFSGSGSGTDFTLTISRLEPEDFALYYCQQYGSSPPFTFGQGTKVEIKR	118
VG9B143 (antibody, human IgG1, lambda, V domains shown) VH: EVQLVESGGGLVQPGGSLRLSCAASGFTFSTYGMNWVRQAPGKGLEWISYISTSSYTIYYSDSVKGRFTVSRDNAKNSLYLQMNSLRDEDTAVYYCAREGDWWYFDLWGRGTTVTVSS VL: QSALTQPASVSGSPGQSITISCTGTSSDVGGYNYVSWYQQHPGKAPKLMIYEVSNRPSGVSYRFSGSKSGNTASLTISGLQAEDEADYYCSSYTSSSTLVFGGGTKLTVLG	97.3

Next item in the queue.
For the binder VG9B472 (antibody, human IgG1, kappa, V domains shown) VH: QVQLVESGGGLVKPGGSLRLSCAASGFTFSHYDMNWVRQAPGKGLEWVSSISSSSSYIFYADSVKGRFTISRDNAKNSLLLQMNSLRAEDTAVYHCARDRGVGDTSDYYSFGLDVWGQGTTVTVSS VL: EIVLTQSPSSLSASVGDRVTITCRASQGIATYLAWYQQKPGKVPNLLIYAASTLQSGVPSRFSGSGSGTDFTLTISSLQPEDVATYYCQKYNSAPPWTFGQGTKVEIKR , what Max. Activity (fold over background) is on record? 171
